Listing of recorded T/C by entry.
# System: CWR22R
# procedure_details: Antiproliferative activity against human 22Rv1 cells assessed as T/C value at 3.2 x 10^1 uM incubated for 96 hrs by propidium iodide based 2D monolayer assay
# Format: functional
Use % as the unit, but write only the number.

CC(O)(COc1ccc(S(F)(F)(F)(F)F)cc1)C(=O)Nc1cc(C(F)(F)F)cc(C(F)(F)F)c1 (racemic)    7

Kindly consider the entry below.
I'd like to know its T/C. The molecule in question is CC(O)(CSc1cc(C(F)(F)F)cc(C(F)(F)F)c1)C(=O)Nc1cccc(C(F)(F)C(F)(F)F)c1 (racemic)
7
